# experiment: yeast display, Sf9 membrane polyspecificity reagent, FACS + sequencing; frameworks hold sequencing errors
observable: polyreactivity (PSR sort gate)

// known answers, use as guide
sequence data	polyreactivity (PSR sort gate)
QVQLVESGAGLVQAGGSLRLSCAASGRTFRINTMGWSIQAPGKERELVATITGSGGSTYYADSVKGRFTISRDNAKNTVYLQMNSLKPEDTAVYYCAAVGDQNEYDYWGQGTQVTVSS	low polyreactivity
QVQLVESGGGLVQAGGILRLSCAASGSTFSYYAMGWYRQAPGKERELVARISKDTGSTYYADSVKGRFTISRDNAKNTVYLQMNSLKPEDTAVYYCAAELDYFPGYDYWGQGTQVTVSS	low polyreactivity
QVQLVESGGGLVQAGGSLRLSCAASGSTLGRNAMGWYRQAPGKERELVAGIDGSAGSTYYADSVKGRFTISRDNAKNTVYLQMNSLKPEDTAVYYCNADVIDLDYDYWGQGTQVTVSS	low polyreactivity
QVQLVETGGGLVQAGGSLRISCAASGFTFSSYVMGWYRQAPGKERELVAAITRGGGSTYYADSVKGRFTISRDNAKNTVYLQMNRLKPEDTAVYYCAARGWRYSYTSVLFDYCGQGTQVTVSS	high polyreactivity
QVQLVESGGGLVQAGGSLRLSCAASGSIFHFYVMGWYRQAPGKERELVAGISSSGGRTYYADSVKGRFTISRDNAKNTFYLQMNSLKPEDTAVYYCANDMYHSVGRYDYWGQGTQVTVSS	low polyreactivity
QVQLQEIGGGLVQAGGSLRLRCAASRNISGSSDLGWYHQAPGKEREFVASITSGGTTYYADSVKGRFTISRDNAKKTVYLQMNSLKAEDTAVYYCAVGDPADAEFGYWGQGTQVTVSS	low polyreactivity

Below are 5 sequences. Give each one its polyreactivity (PSR sort gate).
1. QVQLGESGGGLVQAGVSLRLSCAASGRTFGSYAMGWYRQAPGKESEMVAVISWSGGITYYADSVKGRFTISRDNAKNTVYLQMNSLKPEDTAVYYCAASPRRDENAGRVRLYYWGQGTQVTVSS
2. QVQLVESGGGIVQAGGSLRLSCAASGSTFTLYAMGWYRQAPGQERELVAAITSDDSTYYADSVKGRFTISRDNAKNTVYLQMNSLKPEDTAVYYCAADVYYGDYEMDYWGQGTQVTVSS
3. QVQLVESGGGLVQAGGSLRLSCAASGLIFPRYAMGWYRQAPGKERELVAAITRGGSTYYADSVKGRFTISRDNAKNTVYLQMNSLNPEDTAVYYCTAELPVHWSWYDYWGQGPQVTVSS
4. QVQLVESGGGLVQAGGSLRLSCAASGLTFYYYAMGWYRQAPGKERELVAAISATGGRTYYADSVKGRFTISRDNAKNTVYLQMNSLKPEDTAVYYCAADTPYLRRRLGMDYWGQGTQVTVSS
5. QVQLVESGGGLLQAGGSLRLSSAASVRIFPSYAMGWYRQARGKEREFVAAITRGGASTYYADSVKGRFTISRDNAKNTVYFEMNSLKPEVTAVYYCAKDAYRYGGFSWTTGMDYWGQGTQVTVSA

Result:
1. high polyreactivity
2. low polyreactivity
3. low polyreactivity
4. high polyreactivity
5. high polyreactivity

----------
# experiment: yeast display, Sf9 membrane polyspecificity reagent, FACS + sequencing; frameworks hold sequencing errors

sequence data	polyreactivity (PSR sort gate)
QVQLVESGGGLVQAGGSLRLSCAASGRIFKRYAMGWYRQAPGKERELVATITNGGRTSYADSVKGRFTISRDNAKNTVYLQMNSLKPEDTAVYYCNAYGQTSRPLVYGWRYDYWGQGTQVTVSS	high polyreactivity
QVQLVESGGGLVQAGGSLRLSCAASGSTFSGYAMGWYRQAPGKERELVAAISTDDTYYADSVKGRFTISRDNPKNTVYLQKNSLKPEDTAVYYCAADYLGYYGLEEHWGQGTQVTVSS	high polyreactivity

Reference source: the nanobody polyreactivity screen of Harvey et al. (2022)
